Where these numbers come from: patent US20070270471A1

# target_under_test: human GluR2 flip (unedited) AMPA receptor subunit (Homo sapiens, UniProt P42262)
# Sequence (P42262 25-883 isoform P42262-2 limits assumed): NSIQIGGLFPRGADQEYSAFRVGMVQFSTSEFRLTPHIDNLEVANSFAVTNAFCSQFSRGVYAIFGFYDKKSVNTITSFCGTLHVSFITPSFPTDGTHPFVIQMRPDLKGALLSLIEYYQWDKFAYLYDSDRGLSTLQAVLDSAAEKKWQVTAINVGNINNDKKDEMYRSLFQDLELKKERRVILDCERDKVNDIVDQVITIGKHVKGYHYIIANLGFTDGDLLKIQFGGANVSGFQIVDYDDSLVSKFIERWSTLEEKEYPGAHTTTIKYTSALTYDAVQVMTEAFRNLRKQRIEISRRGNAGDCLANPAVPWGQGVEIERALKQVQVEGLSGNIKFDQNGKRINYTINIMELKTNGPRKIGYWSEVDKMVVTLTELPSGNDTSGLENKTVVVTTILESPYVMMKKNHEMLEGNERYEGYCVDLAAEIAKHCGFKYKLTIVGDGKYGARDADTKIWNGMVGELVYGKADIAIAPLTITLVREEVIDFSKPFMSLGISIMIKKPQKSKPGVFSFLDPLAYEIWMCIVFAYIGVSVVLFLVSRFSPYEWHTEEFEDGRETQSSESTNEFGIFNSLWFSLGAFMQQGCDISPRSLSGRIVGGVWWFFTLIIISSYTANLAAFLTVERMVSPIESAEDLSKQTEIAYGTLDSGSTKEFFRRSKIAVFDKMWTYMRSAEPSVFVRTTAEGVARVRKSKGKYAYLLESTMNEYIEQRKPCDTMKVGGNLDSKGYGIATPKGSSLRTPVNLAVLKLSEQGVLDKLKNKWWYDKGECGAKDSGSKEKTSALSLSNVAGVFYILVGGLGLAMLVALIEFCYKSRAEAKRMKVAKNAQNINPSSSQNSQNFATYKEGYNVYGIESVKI
# experimental_details: Calcium influx fluorescence assay (FLUO4, FLIPR)
# test_parameters: HEK 293 cells expressing human GluR2 flip (unedited); potentiation of response to 100 μM glutamate; peak fluorescence
measurement_kind: EC50

Entry under test: CC(C)S(=O)(=O)N[C@@H]1CN(C)C[C@H]1c1ccc(-c2cccc(N(C)S(C)(=O)=O)c2)cc1 (relative stereo) . Its EC50 was 1580 nM
